Tested on: Inhibin beta A chain (activin A)
Experiment: INHBA (activin A) binders on microarrays, primary screen, biochemical, small-molecule microarray, 635 nm fluorescence scan (AID 1107);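 also: mouse activin A protein probed at 4.33 µg/mL on printed slides; score merges bound-protein fluorescence near 667 nm with spot signal-to-noise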
Conditions: small-molecule microarray binding, higher = more signal
Kindly state composite z-score for each of the entries shown.
Numbers only.

compound	measured_value
C=C(C)C1CCC(C(O)C2C=CC3C(=O)N(C)C(=O)C3N2Nc2cc(OC)c(OC)c(OC)c2)CC1 (centres undefined)	1.11

Okay, here is my list. What is composite z-score for each of these?
1. COc1cccc(/C=C(\C#N)C(=O)Nc2c(C)n(C)n(-c3ccccc3)c2=O)c1
2. O=C1O[C@H](c2ccccc2)[C@H](c2ccccc2)N2[C@H]1[C@@H](C(=O)N1CCCCCCC1)[C@]1(C(=O)Nc3ccc(C#CC4(O)CCCCCC4)cc31)[C@H]2c1ccc(O)cc1

**A:**
1. 0.141
2. 1.79
